# pIC50 listing for each entry below
test system: human breast MDA-MB-361 tumor cell line; experiment: In vitro cell culture growth assay (MTS), MDA-MB-361; format: cell-based; conditions: Homo sapiens, MDA-MB-361, 72 h, MTS cell growth assay, three days after drug treatment, MDA-MB-361 cells; read-out: IC50 MDA-MB-361
pIC50: −log10 of the molar value.
Attribute measured: pIC50

Compound | Reported relation | Number
CN1CCN(C(=O)c2ccc(NC(=O)Nc3ccc(-c4nc(N5CCOCC5)nc(N5C6COCC5COC6)n4)cc3)cc2)CC1 [Example 769] | = | 8.22
CN1CCN(C(=O)c2ccc(NC(=O)Nc3ccc(-c4nc(N5CCCOCC5)nc(N5CCOCC5)n4)cc3)cc2)CC1 [Example 573] | = | 7.00
O=C(Nc1ccc(-c2nc(N3CCOCC3)nc(N3C4CCC3COC4)n2)cc1)Nc1ccc(-c2nc(N3CCOCC3)nc(N3C4CCC3COC4)n2)cc1 [Example 751] | = | 6.84
CN(C)C1CCN(C(=O)c2ccc(NC(=O)Nc3ccc(-c4nc(N5CCCCC5)nc(N5CCOCC5)n4)cc3)cc2)CC1 [Example 598] | = | 7.66
C[C@H]1COCCN1c1nc(-c2ccc(NC(=O)Nc3ccc(C(=O)N4CCC(N(C)C)CC4)cc3)cc2)nc(N2CCOC[C@@H]2C)n1 [Example 616] | = | 8.40
CN(C)C(=O)N1CCN(c2nc(-c3ccc(NC(=O)Nc4ccc(C(=O)O)cc4)cc3)nc(N3CCOCC3)n2)CC1 [Example 646] | = | 7.49
CN(C)C1CCN(C(=O)c2ccc(NC(=O)Nc3ccc(-c4nc(C5CCOCC5)nc(N5CCOCC5)n4)cc3)cc2)CC1 [Example 350] | > | 8.51
Cc1ccc(-c2nc(-c3ccc(NC(=O)Nc4ccc(C(=O)N5CCN(C)CC5)cc4)cc3)nc(N3CCOCC3)n2)cc1 [Example 337] | = | 6.85
CNC(=O)c1ccc(NC(=O)Nc2ccc(-c3nc(N4CCOCC4)nc(N4C5CCC4COC5)n3)cc2)cc1 [Example 696] | = | 7.89
O=C(Nc1ccc(C(=O)N2CCCC2)cc1)Nc1ccc(-c2nc(N3CCCC3)nc(N3CCOCC3)n2)cc1 [Example 612] | = | 7.42
CN1CCN(C(=O)c2ccc(NC(=O)Nc3ccc(-c4nc(C5=CCOCC5)nc(N5CCOCC5)n4)cc3)cc2)CC1 [Example 163] | = | 7.97
CN(C)C1CCN(C(=O)Nc2ccc(NC(=O)Nc3ccc(-c4nc(N5CCOCC5)nc(N5CCOCC5)n4)cc3)cc2)CC1 [Example 499] | = | 7.68
O=C(Nc1ccc(C(=O)N2CCNCC2)cc1)Nc1ccc(-c2nc(N3CCOCC3)nc(N3C4CCCC3COC4)n2)cc1 [Example 793] | = | 8.70
CN1CCN(c2ccc(NC(=O)Nc3ccc(-c4nc(N5CCOCC5)nc(N5C6CCC5COC6)n4)cc3)cc2)CC1 [Example 43] | = | 7.45
